From: PubChem BioAssay (NCI)

Tested on: KM12 colon
procedure_text: NCI-60 one-dose screen, 48 h (100 = growth as untreated, 0 = no growth, -100 = all killed)
cond: 10 µM unless noted
This is part of a sample that, as a whole, favours compounds with a hit. Of some 83,000 tested, about 20% had one in any assay. Calls of active or inactive are those of the source. Rule for the calls: active = growth percent below 10; inactive = the rest.
# reported growth; entries follow

Solved entries:
{"compound": "Cc1cc(=O)[nH]c2c(C#N)cnn12", "test_target": "KM12 colon", "readout_label": "growth", "recorded_result": "107% (inactive)"}
{"compound": "C=C1C(=O)O[C@H]2[C@H]1CC/C(COC(=O)N[C@H]1C[C@H](O[C@H]3C[C@](O)(C(=O)CO)Cc4c(O)c5c(c(O)c43)C(=O)c3c(OC)cccc3C5=O)O[C@@H](C)[C@H]1O)=C\\CC[C@@]1(C)O[C@@H]21", "test_target": "KM12 colon", "readout_label": "growth", "recorded_result": "90.1% (inactive)"}
{"compound": "CN1CCN(c2ccc(NC(=O)c3nc4ccc5[nH]ncc5c4c4c3CCCC4)cc2C(F)(F)F)CC1", "test_target": "KM12 colon", "readout_label": "growth", "recorded_result": "37.9% (inactive)"}
{"compound": "COC(C(=O)[C@@H](O)[C@@H](C)O)[C@@H]1Cc2cc3cc(O[C@H]4C[C@@H](O[C@H]5C[C@@H](O)[C@H](O)C(C)O5)[C@H](O)C(C)O4)c(C)c(O)c3c(O)c2C(=O)[C@H]1O[C@H]1C[C@@H](O[C@H]2C[C@@H](O[C@H]3C[C@@H](O)[C@H](OC)C(C)O3)[C@@H](O)C(C)O2)[C@H](O)C(C)O1 (stereo not given in full)", "test_target": "KM12 colon", "readout_label": "growth", "recorded_result": "13.7% (inactive)"}
{"compound": "O=C(NNc1nccc(Nc2ccc(S(=O)(=O)Nc3ccncc3)cc2)n1)c1ccccc1", "test_target": "KM12 colon", "readout_label": "growth", "recorded_result": "101% (inactive)"}

Look up and report measured growth for this entry: CCCCCCCCCCCCCCCCCCOc1ccccc1CC(=O)NCC[N+]1(C)CCCC1
18.9% (inactive)

Look up and report measured growth for this entry: COc1ccc2[nH]cc(-c3nc(-c4c[nH]c5ccncc45)cs3)c2c1
21.1% (inactive)

Look up and report measured growth for this entry: CCOC(=O)C(=Cc1cccc(Br)c1)C(=O)OCC
11.9% (inactive)

Look up and report measured growth for this entry: CCN(c1ccc(Cl)cc1)c1nc(-c2ccc([N+](=O)[O-])cc2)cs1
93.2% (inactive)

Look up and report measured growth for this entry: CCn1c(=S)[nH]c2c(=O)n(C)c(=O)n(C)c21
111% (inactive)

Look up and report measured growth for this entry: COc1ccc(-c2csc(N(C(=O)N3CCN(c4cc5c(cc4F)c(=O)c(C(=O)O)cn5C4CC4)CC3)c3ccccc3)n2)cc1
5.96% (active)

* * *

Test system: A498 renal
procedure_text: NCI-60 one-dose screen, 48 h
cond: 10 µM unless noted
Method: Growth inhibition of the A498 human tumor cell line is measured as a screen for anti-cancer activity. Cells are grown in 96 well plates and exposed to the test compound for 48 hours. Compounds are tested at a single concentration, which is 10^-5 M for most compounds. The reported endpoint is percent growth (GI% or GIPRCNT), where numbers from 0 - 100% represent growth inhibition, and numbers from -100% - 0 represent cell death. For example, a value of 40 represents 60% growth inhibition. […]
This is part of a sample that, as a whole, favours compounds with a hit. Of some 83,000 tested, about 20% had one in any assay. The source made the active and inactive calls. The calls were made as follows: active = growth percent below 10; inactive = the rest.
Please reply with one of these outcomes: True = active, False = inactive

Worked cases, answers included:
{"compound": "CC(C)c1ccc(COCc2cc(CN3CCCC3)c(O)c3ncccc23)cc1", "classification": "True"}
{"compound": "COc1ccc(CC(C#N)c2cc3ccccc3[nH]2)cc1 (stereo not drawn)", "classification": "False"}
{"compound": "Nc1c(C(=O)Nc2ccccc2Cl)sc2nc3c(cc12)C(O)CCC3 (stereo not drawn)", "classification": "False"}
{"compound": "Cc1cnc(C(=O)NNc2nc3sc4c(c3c(=O)n2C)C(C)CCC4)cn1 (stereo not drawn)", "classification": "False"}
{"compound": "COc1ccc(OC)c(C(=O)/C=C/c2cc3c(c(OC)c2OC)OCO3)c1", "classification": "False"}
{"compound": "O=C(Cn1c2c(c3ccccc31)CCCC2)Nc1ccc(-c2nc3ccccc3s2)cc1", "classification": "False"}
{"compound": "O=C(O)c1ccc(-n2cc(/C=N/Nc3ccc(F)cc3)c(-c3cc4ccccc4oc3=O)n2)cc1", "classification": "False"}
{"compound": "O=C1c2cccnc2C(=O)c2c1c(C(=O)NCCn1ccnc1)c1ccccn21", "classification": "False"}

Hey, what did the test say about O=[N+]([O-])C1C(c2ccccc2)C12c1ccccc1-c1ccccc12 (stereo not drawn) ?
True

Hey, what did the test say about COc1ccc(/C=C2\C(=O)N=C3N2NC(c2cc(Br)ccc2O)C=C(C)N3c2ccccc2)cc1 (stereo not drawn) ?
False

Hey, what did the test say about CCCC(O)Cn1ncc(C(=O)OCC)c1NC(=O)NCc1ccccc1F (stereo not drawn) ?
False

Hey, what did the test say about C=C1CC[C@@H]2[C@](C)(COC(C)=O)[C@H](OC(C)=O)CC[C@@]2(C)[C@@H]1CC(Sc1ccccc1)C1=CCOC1=O (stereo partly drawn) ?
False

* * *

Tested on: MDA-MB-231 breast
procedure_text: NCI-60 one-dose screen, 48 h
cond: 10 µM unless noted
Compounds without any hit were thinned out: in the full panel of roughly 83,000, 20% have a hit. Activity calls are given as the source filed them. The calls were made as follows: active = growth percent below 10; inactive = the rest.
Please reply with one of these outcomes: 1.0 for active, 0.0 for inactive

Worked cases, answers included:
{"compound": "COc1cc(OC)c2sc(-c3ccc(-n4cncc4-c4ccc(OC)c(OC)c4)cc3)nc2c1", "test_target": "MDA-MB-231 breast", "classification": 0.0}
{"compound": "Cc1cccc(Cl)c1NC(=O)c1ccc2nc(NC(=O)NCCN(C)C)sc2c1", "test_target": "MDA-MB-231 breast", "classification": 0.0}
{"compound": "COP(=O)(OC)C(C)(C)CC(=O)CC(C#N)(C#N)C(C#N)C#N", "test_target": "MDA-MB-231 breast", "classification": 0.0}
{"compound": "CN1CCN(c2ccc(C(=O)Nc3cccc(C#Cc4cccc5[nH]nc(N)c45)c3)cc2C(F)(F)F)CC1", "test_target": "MDA-MB-231 breast", "classification": 1.0}
{"compound": "C=CCc1c(O)c(C(=O)/C=C/c2ccc(Cl)cc2)c(OC)c2ccoc12", "test_target": "MDA-MB-231 breast", "classification": 0.0}

Hey, what did the test say about CCc1ccc(C(=O)/C=C/C23c4ccccc4C(c4ccccc42)C2C(=O)NC(=O)C23)cc1 (centres undefined) ?
1.0

Hey, what did the test say about COc1ccc2c3c([nH]c2c1)C(=O)c1nc(C)ccc1C3=O ?
0.0

Hey, what did the test say about CCCCCC(=O)OCC(=O)O[C@@H]1C[C@]2(C(C)C)O[C@@]1(C)[C@@H]1CC[C@@H](C)[C@H]1[C@@H]2OC(=O)/C=C/c1ccccc1 ?
0.0

Hey, what did the test say about COc1cc(N2C(=O)[C@H](O)C2c2ccc(SC)cc2)cc(OC)c1OC (some centres undefined) ?
0.0

* * *

System: NCI/ADR-RES ovarian
procedure_text: NCI-60 one-dose screen, 48 h (100 = growth as untreated, 0 = no growth, -100 = all killed)
cond: 10 µM unless noted
Protocol: Growth inhibition of the NCI/ADR-RES human […] tumor cell line is measured as a screen for anti-cancer activity. Cells are grown in 96 well plates and exposed to the test compound for 48 hours. Compounds are tested at a single concentration, which is 10^-5 M for most compounds. The reported endpoint is percent growth (GI% or GIPRCNT), where numbers from 0 - 100% represent growth inhibition, and numbers from -100% - 0 represent cell death. For example, a value of 40 represents 60% growth inhibition. […]
The panel holds about 83,000 compounds, 20% with a hit somewhere; the sample as a whole holds those more often.
Classify by measured growth: MET if it is equal to or exceeds 90%, NOT MET if it is smaller.

Hi, just wondering whether CCS/C(Nc1ccccc1)=C(\C#N)C(=O)N/N=C/c1ccc(Cl)cc1Cl shows growth of 90% or higher.
NOT MET

Hi, just wondering whether O=C1/C(=C\c2cn(-c3ccccc3)nc2-c2ccc(-c3cccs3)cc2)CCc2ccccc21 shows growth of 90% or higher.
NOT MET

Hi, just wondering whether Cc1ccc(-c2nc(/C=C3/C(=O)Nc4ccccc43)c3ccccn23)cc1 shows growth of 90% or higher.
NOT MET
